target: LXRβ (Homo sapiens, UniProt P55055); construct: Co-transfection expression plasmids, comprising full-length LXRα (pCMX-h LXRα[…] or LXRβ (pCMX-hLXRβ)); expressed in transfected cells; host or cells: CV-1 African Green Monkey Kidney Cells; assay: Co-transfection assay (LXRE luciferase reporter), LXRβ; type: cell-based; conditions: LXRβ co-transfection; relative to high control 1-(2,4-difluorobenzyl)-2-oxo-6-(4-phenoxyphenyl)-4-(trifluoromethyl)-1,2-dihydropyridine-3-carbonitrile; read-out: % Efficacy
Sequence (P55055 whole entry): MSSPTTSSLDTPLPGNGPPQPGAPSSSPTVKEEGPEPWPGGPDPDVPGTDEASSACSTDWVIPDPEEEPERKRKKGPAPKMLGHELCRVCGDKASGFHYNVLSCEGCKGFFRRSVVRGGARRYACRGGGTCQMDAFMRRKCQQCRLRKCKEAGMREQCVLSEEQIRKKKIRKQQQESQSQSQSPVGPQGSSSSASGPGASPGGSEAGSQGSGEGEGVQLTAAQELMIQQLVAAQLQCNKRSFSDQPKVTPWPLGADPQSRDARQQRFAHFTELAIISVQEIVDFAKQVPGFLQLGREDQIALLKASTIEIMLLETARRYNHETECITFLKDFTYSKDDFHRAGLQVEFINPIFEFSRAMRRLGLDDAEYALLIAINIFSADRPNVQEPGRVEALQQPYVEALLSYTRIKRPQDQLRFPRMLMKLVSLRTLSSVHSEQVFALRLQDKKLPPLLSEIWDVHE
Sequence (P19793 whole entry partner): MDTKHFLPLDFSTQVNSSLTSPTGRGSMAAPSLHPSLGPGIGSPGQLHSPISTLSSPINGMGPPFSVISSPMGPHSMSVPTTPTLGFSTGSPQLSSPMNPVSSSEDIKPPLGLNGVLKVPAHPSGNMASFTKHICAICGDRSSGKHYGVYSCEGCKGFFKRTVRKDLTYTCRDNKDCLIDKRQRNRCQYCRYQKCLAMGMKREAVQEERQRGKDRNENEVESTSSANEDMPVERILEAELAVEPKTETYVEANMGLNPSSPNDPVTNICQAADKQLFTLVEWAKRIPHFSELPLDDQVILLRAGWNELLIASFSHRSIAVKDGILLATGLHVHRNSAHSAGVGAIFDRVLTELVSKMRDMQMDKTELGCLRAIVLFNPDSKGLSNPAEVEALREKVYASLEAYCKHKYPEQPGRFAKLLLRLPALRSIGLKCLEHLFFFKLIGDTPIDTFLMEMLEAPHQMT
Parameter: Emax (%)

Please review the following examples before continuing.
> print(dat)
                                   compound                        tested.system  experimental.result
1  Cc1nc(C(F)F)c(Cl)n1-c1ccc(-c2cc(F)c(CO)c(S(C)(=O)=O)c2)cc1-n1nncc1-c1ccc(OC(F)(F)F)cc1  LXRβ (Homo sapiens, UniProt P55055)                  148
2  COc1ncc(-c2oc(C)nc2-c2cc(-c3cccc(S(C)(=O)=O)c3)ccc2-n2cc(C(F)(F)F)nc2C)cn1  LXRβ (Homo sapiens, UniProt P55055)                   70

(A) Cc1nc(-c2cc(-c3cc(F)c(CO)c(S(C)(=O)=O)c3)ccc2-n2cc(C(F)(F)F)nc2C)c(-c2ccc(Cl)cc2F)o1
(B) Cc1nc(-c2cc(-c3cc(F)c(CO)c(S(C)(=O)=O)c3)ccc2-n2cc(C(C)(C)O)nc2C)c(-c2ccc3c(c2)OC(F)(F)O3)o1
Query block: Look at A and B . Which one has the lower recorded Emax number? State your choice using its label.
Result block: B
